Taken from the supplement of paper PMC5919970.

- Tested on: TYKNU
- assay-details: fractional viability relative to vehicle; TYKNU is a high-grade serous ovarian cancer line; higher = less growth inhibition
- condition-description: 2uM; 72 h; genotype: sgCTRLA1 (non-targeting control)
In all, about 2,000 compounds were measured (“fractional viability relative to vehicle”: median about 0.91, lowest 2% from about 0.045 on). This excerpt belongs to a sample that is enriched for the lowest values.
measured-property: fractional viability

Worked cases, answers included:
compound: C[C@H]1O[C@@H](n2cc(F)c(=O)[nH]c2=O)[C@H](O)[C@@H]1O
fractional viability: 1.13
--
compound: COc1cc2c(Oc3ccc4[nH]c(C)cc4c3F)ncnc2cc1OCCCN1CCCC1
fractional viability: 0.847
--
compound: CN(C)CCc1c[nH]c2ccc(CS(=O)(=O)N3CCCC3)cc12 [Almotriptan Malate]
fractional viability: 1.18

Ask | Supply recorded fractional viability for CC(C)NCCCn1c(Sc2cc3c(cc2I)OCO3)nc2c(N)ncnc21 here.
Reply | 0.177

Ask | Supply recorded fractional viability for CC(C)[C@H](O)C(=O)N[C@@H](C)C(=O)N[C@@H]1C(=O)N(C)CCc2ccccc21 here.
Reply | 1.25

Ask | Supply recorded fractional viability for Oc1ccc(-c2nc(-c3ccc(F)cc3)c(-c3ccncc3)[nH]2)cc1 here.
Reply | 1.05

Ask | Supply recorded fractional viability for CC(C)c1cc(-c2n[nH]c(=O)n2-c2ccc3c(ccn3C)c2)c(O)cc1O [Ganetespib (STA-9090)] here.
Reply | 0.204

Ask | Supply recorded fractional viability for Cc1cc2c(F)c(Oc3ncnn4cc(OC[C@@H](C)O)c(C)c34)ccc2[nH]1 here.
Reply | 0.956

Ask | Supply recorded fractional viability for C[C@H]1O[C@@H](O[C@H]2[C@@H](O)C[C@H](O[C@H]3[C@@H](O)C[C@H](O[C@H]4CC[C@@]5(C)[C@H](CC[C@@H]6[C@@H]5C[C@@H](O)[C@]5(C)[C@@H](C7=CC(=O)OC7)CC[C@]65O)C4)O[C@@H]3C)O[C@@H]2C)C[C@H](O)[C@@H]1O here.
Reply | 0.0452

Ask | Supply recorded fractional viability for CCS(=O)(=O)Nc1ccc2c(c1)/C(=C(/Nc1ccc(CN3CCCCC3)cc1)c1ccccc1)C(=O)N2 here.
Reply | 0.329

Ask | Supply recorded fractional viability for CC[C@H](C)C[C@H](C)CCCCCCCCC(=O)N[C@H]1C[C@@H](O)[C@@H](NCCN)NC(=O)[C@@H]2[C@@H](O)CCN2C(=O)[C@H]([C@H](O)CCN)NC(=O)[C@H]([C@H](O)[C@@H](O)c2ccc(O)cc2)NC(=O)[C@@H]2C[C@@H](O)CN2C(=O)[C@H]([C@@H](C)O)NC1=O [Caspofungin Acetate] here.
Reply | 1.17

Ask | Supply recorded fractional viability for OCCn1cc(-c2ccc3c(c2)CC/C3=N\O)c(-c2ccncc2)n1 here.
Reply | 0.957

Ask | Supply recorded fractional viability for Cc1c[nH]c(/C=C2\C(=O)Nc3ccccc32)c1CCC(=O)O here.
Reply | 0.936

Ask | Supply recorded fractional viability for COc1cc2c(cc1OC)[C@@H]1Cc3ccc(OC)c(OC)c3CN1CC2 here.
Reply | 1.06

Ask | Supply recorded fractional viability for COC(=O)c1ccc2c(c1)NC(=O)/C2=C(\Nc1ccc(N(C)C(=O)CN2CCN(C)CC2)cc1)c1ccccc1 here.
Reply | 0.889

Ask | Supply recorded fractional viability for O=C1NC(=O)/C(=C/c2cccc(C(F)(F)F)c2)S1 here.
Reply | 0.945

Ask | Supply recorded fractional viability for c1coc(CNc2ncnc3[nH]cnc23)c1 here.
Reply | 1.01

Ask | Supply recorded fractional viability for O=C1c2c(O)cc(O)cc2OC(c2ccc(O)c(O)c2)C1O (stereo unspecified) [Taxifolin (Dihydroquercetin)] here.
Reply | 1.15

Ask | Supply recorded fractional viability for CCc1cc(Nc2nccc(-c3c(-c4ccc(OC)c(C(=O)Nc5c(F)cccc5F)c4)nc4ccccn34)n2)c(OC)cc1N1CCC(N2CCN(S(C)(=O)=O)CC2)CC1 here.
Reply | 1.04

Ask | Supply recorded fractional viability for CN(C)Cc1cccc(N/C(=C2\C(=O)Nc3cc(C(N)=O)ccc32)c2ccccc2)c1 here.
Reply | 0.992

Ask | Supply recorded fractional viability for CCOC(=O)[C@H]1O[C@@H]1C(=O)N[C@@H](CC(C)C)C(=O)NCCC(C)C here.
Reply | 0.91

Ask | Supply recorded fractional viability for O=C(NS(=O)(=O)c1ccc(Br)s1)c1ccc(Cl)cc1Cl here.
Reply | 0.973

Ask | Supply recorded fractional viability for CCCc1cc2c(N3CCN(C4=NCC(C)(C)S4)CC3)ncnc2s1 here.
Reply | 0.869

Ask | Supply recorded fractional viability for CCO[C@@H]1OC(=O)C[C@@H]1NC(=O)[C@@H]1CCCN1C(=O)[C@@H](NC(=O)c1ccc(N)c(Cl)c1)C(C)(C)C here.
Reply | 1.18

Ask | Supply recorded fractional viability for CNCc1ccc(-c2cc(-c3nc(-c4ccc(S(=O)(=O)C(C)C)cc4)cnc3N)on2)cc1 here.
Reply | 1.19
